# test system: Histamine H3 receptor (Homo sapiens)
# test details: Displacement of [3H]-alpha-methylhistamine from histamine H3 receptor (unknown origin) expressed in Flp-In-293 cells at 10 uM relative to control
# Assay type: cell-based
Quick list: inhibition per entry.

// worked examples, inhibition included
Lab entry: Histamine H3 receptor (Homo sapiens) assay, compound C/C=C1/CN2[C@@H]3C[C@@]45c6ccccc6N[C@]4(O3)[C@@H]2C[C@@H]1[C@@]5(COC(C)=O)C(=O)OC , inhibition = < 60%

// inhibition (Histamine H3 receptor (Homo sapiens)) for C/C=C1/CN2CC[C@]34C(=C(C(=O)OC)[C@H]1C[C@H]23)Nc1ccccc14 = < 60%

C/C=C1/CN2CC[C@@]34c5ccccc5N(C)[C@]35OC[C@@]4(C(=O)OC)[C@H]1C[C@H]25 on Histamine H3 receptor (Homo sapiens) gives inhibition = < 60%

// assay Histamine H3 receptor (Homo sapiens), entry C/C=C1/CN2CC[C@@]34c5cc(O)ccc5N(C)[C@]35OC[C@@]4(C(=O)OC)[C@H]1C[C@H]25 , inhibition value = < 60%

Continuing:
// returns inhibition for C/C=C1/CN2CC[C@]34C(=Nc5ccccc53)[C@@H]2C[C@@H]1[C@@]4(COC(C)=O)C(=O)OC with Histamine H3 receptor (Homo sapiens); value = < 60%

---

# test system: Delta-type opioid receptor (Mus musculus, UniProt P32300)
# Sequence (P32300 whole entry): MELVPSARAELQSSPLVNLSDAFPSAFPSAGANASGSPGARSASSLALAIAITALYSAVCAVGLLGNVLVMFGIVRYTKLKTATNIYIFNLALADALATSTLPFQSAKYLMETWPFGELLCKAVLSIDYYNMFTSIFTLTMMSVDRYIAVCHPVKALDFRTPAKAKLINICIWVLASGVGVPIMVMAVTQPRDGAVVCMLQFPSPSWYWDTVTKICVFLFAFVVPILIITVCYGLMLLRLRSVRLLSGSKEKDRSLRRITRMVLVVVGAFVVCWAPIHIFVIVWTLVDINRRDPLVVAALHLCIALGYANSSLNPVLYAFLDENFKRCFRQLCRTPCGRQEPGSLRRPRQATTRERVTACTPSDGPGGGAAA
# test details: Agonist activity at mouse FLAG-tagged delta opioid receptor expressed in HEK293 cells assessed as inhibition of forskolin-induced cAMP production preincubated for 20 mins followed by forskolin stimulation and measured after 15 mins by Glo-sensor reagent based assay
# Assay type: functional, cell-based
# protocol conditions: read-out: IC50
metric: IC50 (µM)
Lab book: enter the figure in µM, no units written.

Looking up C/C=C1/CN2CC[C@]34C(=C(C(=O)OC)[C@H]1C[C@H]23)Nc1ccccc14 , I found its IC50 recorded as 12.4

Entry C/C=C1/CN2[C@H]3Cc4c([nH]c5ccccc45)[C@@H]2C[C@@H]1[C@]3(CO)C(=O)OC ; IC50 = 15.4

Note to self: IC50 recorded for C/C=C1/CN2CC[C@]34C(=Nc5ccccc53)[C@@H]2C[C@@H]1[C@@]4(COC(C)=O)C(=O)OC was 24.4

response.value for C/C=C1/CN2CC[C@@]34c5cc(O)ccc5N(C)[C@]35OC[C@@]4(C(=O)OC)[C@H]1C[C@H]25 (field: IC50) = 20.3

Alright, here's another compound for you.
C/C=C1/CN2CC[C@@]34c5ccccc5N(C)[C@]35OC[C@@]4(C(=O)OC)[C@H]1C[C@H]25 yielded IC50 of 95.6

---

Overview of recorded IC50 for various compounds
# test system: Mu-type opioid receptor (Mus musculus)
# Sequence (P42866 whole entry): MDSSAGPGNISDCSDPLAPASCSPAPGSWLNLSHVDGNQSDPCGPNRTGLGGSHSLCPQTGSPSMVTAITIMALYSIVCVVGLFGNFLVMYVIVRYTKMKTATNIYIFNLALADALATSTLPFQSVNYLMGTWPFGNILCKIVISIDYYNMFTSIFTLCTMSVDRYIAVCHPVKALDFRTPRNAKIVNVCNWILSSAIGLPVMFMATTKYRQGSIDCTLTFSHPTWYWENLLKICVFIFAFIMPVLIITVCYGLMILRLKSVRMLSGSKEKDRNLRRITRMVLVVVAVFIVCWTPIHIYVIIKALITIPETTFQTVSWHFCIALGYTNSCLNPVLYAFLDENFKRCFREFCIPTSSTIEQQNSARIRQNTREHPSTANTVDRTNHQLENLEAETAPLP
# test details: Agonist activity at mouse HA-tagged mu opioid receptor expressed in HEK293 cells assessed as inhibition of forskolin-induced cAMP production preincubated for 20 mins followed by forskolin stimulation and measured after 15 mins by Glo-sensor reagent based assay
Your answer should be a plain number; it is taken to be in µM.

Use these answered entries as a reference point.
Consider C/C=C1/CN2CC[C@]34C(=C(C(=O)OC)[C@H]1C[C@H]23)Nc1ccccc14 [AKUAMMICINE] . Its measured IC50 is 8.24

Field IC50 (entry C/C=C1/CN2[C@@H]3C[C@@]45c6ccccc6N[C@]4(O3)[C@@H]2C[C@@H]1[C@@]5(COC(C)=O)C(=O)OC ) reads 45

For this compound ( C/C=C1/CN2CC[C@]34C(=Nc5ccccc53)[C@@H]2C[C@@H]1[C@@]4(COC(C)=O)C(=O)OC ), measured IC50 is 18.7

Moving on to another compound below.
Value of IC50 reported for the compound C/C=C1/CN2[C@H]3Cc4c([nH]c5ccccc45)[C@@H]2C[C@@H]1[C@]3(CO)C(=O)OC is 3.14

---

The listing below reports pKi for molecules tested on Mu-type opioid receptor (Homo sapiens).
Sequence (P35372 whole entry): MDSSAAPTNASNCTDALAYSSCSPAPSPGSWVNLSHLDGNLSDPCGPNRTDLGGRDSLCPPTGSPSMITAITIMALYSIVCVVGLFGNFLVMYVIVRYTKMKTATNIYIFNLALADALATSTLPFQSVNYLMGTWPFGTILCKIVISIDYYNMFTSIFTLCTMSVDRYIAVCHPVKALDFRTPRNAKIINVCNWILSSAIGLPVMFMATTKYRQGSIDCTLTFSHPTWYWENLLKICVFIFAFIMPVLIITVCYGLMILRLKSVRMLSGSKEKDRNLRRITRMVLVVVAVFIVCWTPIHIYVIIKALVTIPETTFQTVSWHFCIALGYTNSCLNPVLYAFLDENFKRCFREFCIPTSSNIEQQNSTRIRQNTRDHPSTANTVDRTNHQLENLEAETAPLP
Keep it numeric: pKi is minus log10 of the concentration in mol/L.

Solved entries (count: 3):
Here C/C=C1/CN2[C@@H]3C[C@@]45c6ccccc6N[C@]4(O3)[C@@H]2C[C@@H]1[C@@]5(COC(C)=O)C(=O)OC was tested on Mu-type opioid receptor (Homo sapiens), and its pKi came to 3.88

Fill in: Mu-type opioid receptor (Homo sapiens) pKi for C/C=C1/CN2CC[C@]34C(=Nc5ccccc53)[C@@H]2C[C@@H]1[C@@]4(COC(C)=O)C(=O)OC = 4.51

# pKi measured on Mu-type opioid receptor (Homo sapiens) for item C/C=C1/CN2CC[C@]34C(=C(C(=O)OC)[C@H]1C[C@H]23)Nc1ccccc14 = 5.48

More entries:
Simply: C/C=C1/CN2[C@H]3Cc4c([nH]c5ccccc45)[C@@H]2C[C@@H]1[C@]3(CO)C(=O)OC , Mu-type opioid receptor (Homo sapiens), pKi = 6.49
